Measured on: Alpha glucosidase (Homo sapiens, UniProt O43451+P10253+P14410+Q2M2H8)
Procedure summary: Inhibition of alpha-glucosidase (unknown origin)
Assay type: protein assay
Response field label takes 1 when IC50 is strictly below 10 µM and 0 in all other cases.

Prompt: Item COc1ccc(C=O)c(OCC(=O)Nc2sc3c(c2C#N)CCC(C)C3)c1 (configuration not stated) : IC50 beneath 10 µM, strictly?
Response: 1

Prompt: And for COc1ccc(C=O)cc1OCC(=O)Nc1sc2c(c1C#N)CCC(C)C2 (configuration not stated) ?
Response: 1

Prompt: And for COc1ccc(CNC(=O)Nc2sc3c(c2C#N)CCCC3)c(OC)c1 ?
Response: 0

Prompt: And for Cc1cc(C=O)ccc1OCC(=O)Nc1sc2c(c1C#N)CCC(C)C2 (configuration not stated) ?
Response: 0

Prompt: And for COC(=O)C1CCCc2sc(NC(=O)COc3ccc(C=O)cc3OC)c(C#N)c21 (configuration not stated) ?
Response: 0

Prompt: And for Cc1cccc(C=O)c1OCC(=O)Nc1sc2c(c1C#N)CCC(C)C2 (configuration not stated) ?
Response: 0

Prompt: And for COc1cc(C=O)ccc1OCC(=O)Nc1sc2c(c1C#N)CCOC2 ?
Response: 0

Prompt: And for COc1cc(C=O)cc(OCC(=O)Nc2sc3c(c2C#N)CCC(C)C3)c1OC (racemic) ?
Response: 1

Prompt: And for COc1cc(C=O)ccc1OCC(=O)Nc1sc2c(c1C#N)CCCC2 ?
Response: 0

Prompt: And for Cc1ccc(C=O)c(OCC(=O)Nc2sc3c(c2C#N)CCC(C)C3)c1 (configuration not stated) ?
Response: 0

Prompt: And for COc1cc(C=O)ccc1OCC(=O)Nc1sc2c(c1C#N)CCC(O)C2 (configuration not stated) ?
Response: 0

Prompt: And for COc1cc(C=O)ccc1OCC(=O)Nc1sc2c(c1C#N)CCC2 ?
Response: 0

Prompt: And for CC1CCc2c(sc(NC(=O)COc3cccc(C=O)c3)c2C#N)C1 (configuration not stated) ?
Response: 0

Prompt: And for CCOC(=O)C1CCc2sc(NC(=O)COc3ccc(C=O)cc3OC)c(C#N)c21 (configuration not stated) ?
Response: 0

Prompt: And for CC1CCc2c(sc(NC(=O)COc3ccccc3C=O)c2C#N)C1 (configuration not stated) ?
Response: 0

Prompt: And for CC1CCc2c(sc(NC(=O)COc3ccc(C=O)cc3)c2C#N)C1 (configuration not stated) ?
Response: 0

Prompt: And for COc1cc(C=O)ccc1OCC(=O)Nc1sc2c(c1C#N)CCC(C)C2 (configuration not stated) ?
Response: 1

###

Procedure summary: Selectivity index, ratio of IC50 for alpha-amylase (unknown origin) to IC50 for alpha-glucosidase (unknown origin)
Hi there, I'd appreciate the recorded Selectivity Index for every entry that follows.
Keep the answer to the number alone.

Prompt: Name the recorded Selectivity Index for COc1ccc(C=O)cc1OCC(=O)Nc1sc2c(c1C#N)CCC(C)C2 (centres undefined) .
Response: 8.19

Prompt: And for COc1cc(C=O)ccc1OCC(=O)Nc1sc2c(c1C#N)CCC(C)C2 (centres undefined) ?
Response: 6.97

Prompt: And for COc1cc(C=O)cc(OCC(=O)Nc2sc3c(c2C#N)CCC(C)C3)c1OC (racemic) ?
Response: 17.5

Prompt: And for COc1ccc(C=O)c(OCC(=O)Nc2sc3c(c2C#N)CCC(C)C3)c1 (centres undefined) ?
Response: 9.2
